test_system: GUSB (zebrafish larvae) (Danio rerio, UniProt F1QGS9)
Construct: endogenous enzyme in larvae, measured in larval lysate
Sequence (F1QGS9 26-644): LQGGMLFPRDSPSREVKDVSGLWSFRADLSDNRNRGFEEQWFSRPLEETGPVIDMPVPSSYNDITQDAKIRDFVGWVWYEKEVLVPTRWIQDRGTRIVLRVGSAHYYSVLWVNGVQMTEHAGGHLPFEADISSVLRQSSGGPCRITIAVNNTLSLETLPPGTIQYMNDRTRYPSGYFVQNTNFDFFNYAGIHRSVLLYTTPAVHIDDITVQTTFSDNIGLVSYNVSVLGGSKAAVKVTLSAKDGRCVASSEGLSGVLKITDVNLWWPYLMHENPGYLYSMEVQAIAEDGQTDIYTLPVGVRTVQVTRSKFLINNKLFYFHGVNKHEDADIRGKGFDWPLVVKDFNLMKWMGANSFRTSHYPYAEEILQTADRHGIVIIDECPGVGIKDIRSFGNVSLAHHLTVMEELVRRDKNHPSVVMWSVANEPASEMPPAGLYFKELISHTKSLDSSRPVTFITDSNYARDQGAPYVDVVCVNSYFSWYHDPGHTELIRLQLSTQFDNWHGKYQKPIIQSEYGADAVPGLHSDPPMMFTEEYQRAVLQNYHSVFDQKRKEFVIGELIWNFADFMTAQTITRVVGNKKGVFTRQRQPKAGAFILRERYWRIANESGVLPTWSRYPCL
assay_overview: live larvae exposed, residual activity in lysate with 4MU-beta-D-glucuronide
experimental_conditions: covalent; in vivo: concentration in egg water, 5 days at 28.5 °C; assay pH 5.0; read-out: CBE / Enz. assay
assay_metric: IC50 (mM)
Give the number; mM is assumed, so skip it.

Return IC50 for the following molecule: OC1C(O)C(O)C2OC2C1O (stereo not shown) [compound 1, conduritol B epoxide]
6.38

###

test_system: GAA (lysosomal alpha-glucosidase) (Homo sapiens, UniProt P10253)
Construct: endogenous enzyme in HEK293T cells (GBA2-expressing line)
assay_overview: intact cells treated, residual activity in lysate with 4MU-alpha-D-glucopyranoside
Format: cell-based
experimental_conditions: covalent; 24 h treatment of intact HEK293T cells; assay pH 4.0; read-out: CBE / Enz. assay
Excerpt: intact cells treated, residual activity in lysate with 4MU-alpha-D-glucopyranoside on GAA (lysosomal alpha-glucosidase)
assay_metric: pIC50
The meaning of pIC50 here: minus log10 of the concentration in molar units.

Output reported pIC50 of the compound OC1C(O)C(O)C2OC2C1O (stereo not shown) [compound 1, conduritol B epoxide] on GAA (lysosomal alpha-glucosidase) (Homo sapiens, UniProt P10253).
3.51

###

test_system: GAA (lysosomal alpha-glucosidase) (Homo sapiens)
Construct: endogenous enzyme in HEK293T cells (GBA2-expressing line)
assay_overview: intact cells treated, residual activity in lysate with 4MU-alpha-D-glucopyranoside
Assay type: cell-based
experimental_conditions: 24 h treatment of intact HEK293T cells; assay pH 4.0; read-out: CP / Enz. assay
assay_metric: IC50

Return IC50 for the following compound: OC[C@@H]1[C@@H](O)[C@H](O)[C@@H](O)[C@@H]2O[C@H]12
> 10 µM

###

test_system: GBA (HEK293T cells) (Homo sapiens)
Construct: gene GBA1; endogenous lysosomal enzyme in HEK293T cells that stably express human GBA2; 58-66 kDa on gel
Sequence (P04062 40-536): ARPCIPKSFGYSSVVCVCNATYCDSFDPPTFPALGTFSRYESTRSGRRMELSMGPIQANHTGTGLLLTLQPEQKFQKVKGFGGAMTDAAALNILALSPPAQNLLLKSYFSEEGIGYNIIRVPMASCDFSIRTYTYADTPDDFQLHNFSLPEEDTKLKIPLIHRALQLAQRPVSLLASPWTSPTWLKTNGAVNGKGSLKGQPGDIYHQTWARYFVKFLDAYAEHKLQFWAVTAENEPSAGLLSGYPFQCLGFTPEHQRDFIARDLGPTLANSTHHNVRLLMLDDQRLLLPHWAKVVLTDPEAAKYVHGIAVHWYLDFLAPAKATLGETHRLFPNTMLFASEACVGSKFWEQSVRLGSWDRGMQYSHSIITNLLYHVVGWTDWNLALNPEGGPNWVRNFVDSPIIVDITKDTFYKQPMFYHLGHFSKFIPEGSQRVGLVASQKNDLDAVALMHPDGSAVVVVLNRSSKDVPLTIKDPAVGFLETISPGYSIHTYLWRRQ
assay_overview: intact cells treated, residual activity in lysate with 4MU-glucoside
Type: cell-based
experimental_conditions: covalent; 24 h treatment of intact HEK293T cells; assay pH 5.2 with 25 nM AMP-DNM to block GBA2; read-out: CBE / Enz. assay
assay_metric: pIC50
The meaning of pIC50 here: minus log10 of the concentration in molar units.

Return pIC50 for the following compound: OC1C(O)C(O)C2OC2C1O (stereo not shown) [compound 1, conduritol B epoxide]
6.48

###

test_system: GAA (zebrafish larvae) (Danio rerio)
Construct: endogenous enzyme in larvae, measured in larval lysate; paralogues not distinguished
Sequence (A0A8M1QKP5 31-918): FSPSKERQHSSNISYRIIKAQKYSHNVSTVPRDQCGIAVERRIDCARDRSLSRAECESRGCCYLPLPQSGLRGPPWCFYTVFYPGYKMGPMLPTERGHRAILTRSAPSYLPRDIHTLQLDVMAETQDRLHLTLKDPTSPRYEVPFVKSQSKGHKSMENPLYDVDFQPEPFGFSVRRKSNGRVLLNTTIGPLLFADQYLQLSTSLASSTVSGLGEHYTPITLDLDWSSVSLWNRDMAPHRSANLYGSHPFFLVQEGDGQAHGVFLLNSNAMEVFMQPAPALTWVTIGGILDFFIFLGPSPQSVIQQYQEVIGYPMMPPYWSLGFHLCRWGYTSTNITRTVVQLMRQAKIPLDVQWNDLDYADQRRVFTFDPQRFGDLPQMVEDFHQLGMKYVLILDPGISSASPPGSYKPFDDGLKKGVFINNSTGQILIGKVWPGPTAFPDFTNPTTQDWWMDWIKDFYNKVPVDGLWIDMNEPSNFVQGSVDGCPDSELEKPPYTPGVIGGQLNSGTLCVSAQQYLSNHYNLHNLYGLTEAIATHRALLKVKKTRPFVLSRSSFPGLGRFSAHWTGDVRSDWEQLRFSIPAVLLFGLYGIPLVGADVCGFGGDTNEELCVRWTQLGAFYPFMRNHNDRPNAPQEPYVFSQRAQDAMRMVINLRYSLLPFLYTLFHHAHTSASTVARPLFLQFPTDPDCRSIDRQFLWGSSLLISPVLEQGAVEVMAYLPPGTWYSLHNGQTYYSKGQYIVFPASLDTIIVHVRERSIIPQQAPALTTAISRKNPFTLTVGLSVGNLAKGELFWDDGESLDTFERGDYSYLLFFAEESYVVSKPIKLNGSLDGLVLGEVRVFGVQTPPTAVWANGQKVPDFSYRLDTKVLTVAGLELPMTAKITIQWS
assay_overview: live larvae exposed, residual activity in lysate with 4MU-alpha-D-glucopyranoside
experimental_conditions: in vivo: concentration in egg water, 5 days at 28.5 °C; assay pH 4.0; read-out: CP / Enz. assay
assay_metric: IC50

Return IC50 for the following molecule: OC[C@@H]1[C@@H](O)[C@H](O)[C@@H](O)[C@@H]2O[C@H]12
> 100 µM
